Conditions: cell viability/%
Where a SMILES comes first, the peptide text is derived from it. [ ]: non-standard residue; d: D form. The star is where a group is joined. NHCH2CH2OH = OCCN*; For = O=C*
reported property: viability (%)
One number for each entry, in %.

CNC(=O)C[C@@H](NC(=O)[C@H](Cc1c[nH]c2ccccc12)NC(=O)[C@H](NC(=O)[C@H](Cc1c[nH]c2ccccc12)NC(=O)[C@H](NC(=O)[C@H](Cc1c[nH]c2ccccc12)NC(=O)[C@H](NC(=O)[C@@H](NC(=O)[C@H](NC(=O)[C@H](C)NC(=O)[C@@H](CC(C)C)NC(=O)[C@H](C)NC(=O)CNC(=O)[C@@H](NC=O)C(C)C)C(C)C)C(C)C)C(C)C)C(C)C)C(C)C)C(=O)N[C@@H](Cc1c[nH]c2ccccc12)C(=O)NCCO [compound 362] (For-VGA[dL]A[dV]V[dV]W[dV]W[dV]W[dD](NHMe)W-NHCH2CH2OH)
100

Asked: Return viability for the following molecule: CC(C)C[C@@H](NC(=O)[C@H](C)NC(=O)CNC(=O)[C@@H](NC=O)C(C)C)C(=O)N[C@@H](C)C(=O)N[C@@H](C(=O)N[C@H](C(=O)N[C@@H](C(=O)N[C@@H](Cc1c[nH]c2ccccc12)C(=O)N[C@H](CC(C)C)C(=O)N[C@@H](Cc1c[nH]c2ccccc12)C(=O)N[C@H](CC(C)C)C(=O)N[C@@H](Cc1c[nH]c2ccccc12)C(=O)N[C@H](CC(C)C)C(=O)N[C@@H](Cc1c[nH]c2ccccc12)C(=O)NCCO)C(C)C)C(C)C)[C@H](C)O [compound 9098] (For-VGA[dL]A[dT]V[dV]W[dL]W[dL]W[dL]W-NHCH2CH2OH)
Given back: 51

###

Tested on: Streptococcus pyogenes SSI-9
Assay: Antibacterial activity assay of bead-derived peptides (three concentrations)
Type: cell-based
Set-up: key: +++: inhibition by the 640-fold diluted peptide solution; ++: inhibition by the 160-fold diluted solution; +: inhibition by the 40-fold diluted solution; -: no inhibition
Details: S. pyogenes, bead-derived peptide solution, three concentrations
Where a SMILES comes first, the peptide text is derived from it. [ ]: non-standard residue; d: D form. The star is where a group is joined. NHCH2CH2OH = OCCN*; For = O=C*
reported property: antibacterial activity

CC(C)C[C@@H](NC(=O)[C@H](Cc1c[nH]c2ccccc12)NC(=O)[C@@H](CC(C)C)NC(=O)[C@@H](NC(=O)[C@H](NC(=O)[C@H](C)NC(=O)[C@H](NC(=O)[C@H](C)NC(=O)CNC(=O)[C@@H](NC=O)C(C)C)C(C)C)[C@H](C)O)C(C)C)C(=O)N[C@@H](Cc1c[nH]c2ccccc12)C(=O)N[C@H](CC(C)C)C(=O)N[C@@H](Cc1c[nH]c2ccccc12)C(=O)N[C@@H](C(=O)N[C@@H](Cc1c[nH]c2ccccc12)C(=O)NCCO)C(C)C [compound 2495] (For-VGA[dV]A[dT]V[dL]W[dL]W[dL]W[dV]W-NHCH2CH2OH)
-
CNC(=O)C[C@@H](NC(=O)[C@@H](NC(=O)[C@@H](CC(C)C)NC(=O)[C@H](C)NC(=O)[C@H](NC(=O)[C@H](C)NC(=O)CNC(=O)[C@@H](NC=O)C(C)C)C(C)C)C(C)C)C(=O)N[C@@H](Cc1c[nH]c2ccccc12)C(=O)N[C@H](CC(C)C)C(=O)N[C@@H](Cc1c[nH]c2ccccc12)C(=O)N[C@H](CC(C)C)C(=O)N[C@@H](Cc1c[nH]c2ccccc12)C(=O)N[C@@H](C(=O)N[C@@H](Cc1c[nH]c2ccccc12)C(=O)NCCO)C(C)C [compound 6360] (For-VGA[dV]A[dL]V[dD](NHMe)W[dL]W[dL]W[dV]W-NHCH2CH2OH)
-
